Tested on: MV4-11
Assay: Antiproliferative activity against human MV4-11 cells supplemented with fresh medium containing compound every 4 days measured on day 12 by Celltiter-glo luminescent cell viability assay
Assay type: functional
# note: boundary value 200 nM maps to false (0); GI50 below it maps to true (1)

As a guide, the following entries are already answered.
compound	categoryLabel
O=C(NCC(O)CN1CCc2ccccc2C1)c1cc2c(s1)CCN(C(=O)c1ccncc1)C2 (stereo unspecified)	true (1)
Cc1ccc(C(=O)N2CCc3sc(C(=O)NCC(O)CN4CCc5ccccc5C4)cc3C2)cc1 (stereo unspecified)	true (1)
O=C(NCC(O)CN1CCc2ccccc2C1)c1cc2c(s1)CCN(C(=O)c1ccccc1)C2 (stereo unspecified)	true (1)
COc1ccc(C(=O)N2CCc3cc(C(=O)NC[C@@H](O)CN4CCc5ccccc5C4)ccc3C2)cc1	false (0)
O=C(NCC(O)CN1CCc2ccccc2C1)c1cc2c(s1)CCN(C(=O)c1ccc3ccccc3c1)C2 (stereo unspecified)	true (1)

Kindly review the next compound as well.
Challenge: Strictly below 200 nM: is that where GI50 of "O=C(NC[C@@H](O)CN1CCc2ccccc2C1)c1ccc2c(c1)CCN(C(=O)c1ccc(Br)cc1)C2" sits?
Response given: true (1)

====

Tested on: MV4-11
Assay: Antiproliferative activity against human MV4-11 cells supplemented with fresh medium containing compound every 4 days measured on day 12 by Celltiter-glo luminescent cell viability assay
Format: functional
endpointName: GI50 (nM)
Express your answer in nM, writing the number without its unit.

Check out these entries, answers already filled in.
compound	systemTested	GI50 [nM]
COc1ccc(C(=O)N2CCc3sc(C(=O)NCC(O)CN4CCc5ccccc5C4)cc3C2)cc1 (stereo not drawn)	MV4-11	85.6
O=C(NCC(O)CN1CCc2ccccc2C1)c1cc2c(s1)CCN(C(=O)c1ccc([N+](=O)[O-])cc1)C2 (stereo not drawn)	MV4-11	141
O=C(NCC(O)CN1CCc2ccccc2C1)c1cc2c(s1)CCN(C(=O)c1ccc(C(F)(F)F)cc1)C2 (stereo not drawn)	MV4-11	134

Challenge: Quick one: GI50 of O=C(NCC(O)CN1CCc2ccccc2C1)c1cc2c(s1)CCN(C(=O)Cc1ccccc1)C2 (stereo not drawn) ?
Response given: 147

Challenge: Quick one: GI50 of O=C(NCC(O)CN1CCc2ccccc2C1)c1ccc2c(c1)CCN(C(=O)c1ccc(Br)cc1)C2 (stereo not drawn) ?
Response given: 34

Challenge: Quick one: GI50 of COc1ccc(C(=O)N2CCc3cc(C(=O)NCC(O)CN4CCc5ccccc5C4)ccc3C2)cc1 (stereo not drawn) ?
Response given: 32

Challenge: Quick one: GI50 of "COc1ccc(C(=O)N2CCc3cc(C(=O)NC[C@H](O)CN4CCc5ccccc5C4)ccc3C2)cc1" ?
Response given: 23

Challenge: Quick one: GI50 of "O=C(NC[C@H](O)CN1CCc2ccccc2C1)c1ccc2c(c1)CCN(C(=O)c1ccc(Br)cc1)C2" ?
Response given: 18

Challenge: Quick one: GI50 of CC(=O)c1ccc(C(=O)N2CCc3sc(C(=O)NCC(O)CN4CCc5ccccc5C4)cc3C2)cc1 (stereo not drawn) ?
Response given: 89

Challenge: Quick one: GI50 of N#Cc1ccc(C(=O)N2CCc3sc(C(=O)NCC(O)CN4CCc5ccccc5C4)cc3C2)cc1 (stereo not drawn) ?
Response given: 135

Challenge: Quick one: GI50 of O=C(NCC(O)CN1CCc2ccccc2C1)c1cc2c(s1)CCN(C(=O)c1ccco1)C2 (stereo not drawn) ?
Response given: 160

Challenge: Quick one: GI50 of CN(C)c1ccc(C(=O)N2CCc3sc(C(=O)NCC(O)CN4CCc5ccccc5C4)cc3C2)cc1 (stereo not drawn) ?
Response given: 143

Challenge: Quick one: GI50 of O=C(NCC(O)CN1CCc2ccccc2C1)c1cc2c(s1)CCN(C(=O)c1cccs1)C2 (stereo not drawn) ?
Response given: 168

Challenge: Quick one: GI50 of "CN(C)c1ccc(C(=O)N2CCc3cc(C(=O)NC[C@H](O)CN4CCc5ccccc5C4)ccc3C2)cc1" ?
Response given: 53

====

Target: PRMT5/MEP50 complex (Homo sapiens, UniProt O14744)
Sequence (O14744 whole entry): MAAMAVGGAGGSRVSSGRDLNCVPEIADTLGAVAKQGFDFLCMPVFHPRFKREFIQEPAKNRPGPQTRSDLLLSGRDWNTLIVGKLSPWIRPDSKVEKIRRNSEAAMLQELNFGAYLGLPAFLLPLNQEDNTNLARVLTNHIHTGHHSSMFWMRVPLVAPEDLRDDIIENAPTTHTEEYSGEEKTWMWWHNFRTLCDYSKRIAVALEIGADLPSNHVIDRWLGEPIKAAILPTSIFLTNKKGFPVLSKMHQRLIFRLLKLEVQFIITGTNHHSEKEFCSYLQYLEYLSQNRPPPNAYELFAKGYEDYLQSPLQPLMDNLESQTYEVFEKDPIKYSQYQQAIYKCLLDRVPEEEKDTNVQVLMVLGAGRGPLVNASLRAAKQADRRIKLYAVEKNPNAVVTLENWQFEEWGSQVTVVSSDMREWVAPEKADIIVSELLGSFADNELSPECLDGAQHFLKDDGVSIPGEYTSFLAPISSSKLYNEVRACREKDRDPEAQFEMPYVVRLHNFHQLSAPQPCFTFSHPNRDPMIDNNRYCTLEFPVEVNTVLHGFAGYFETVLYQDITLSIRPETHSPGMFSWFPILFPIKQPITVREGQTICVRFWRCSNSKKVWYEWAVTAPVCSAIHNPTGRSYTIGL
Sequence (Q9BQA1 whole entry, further chain): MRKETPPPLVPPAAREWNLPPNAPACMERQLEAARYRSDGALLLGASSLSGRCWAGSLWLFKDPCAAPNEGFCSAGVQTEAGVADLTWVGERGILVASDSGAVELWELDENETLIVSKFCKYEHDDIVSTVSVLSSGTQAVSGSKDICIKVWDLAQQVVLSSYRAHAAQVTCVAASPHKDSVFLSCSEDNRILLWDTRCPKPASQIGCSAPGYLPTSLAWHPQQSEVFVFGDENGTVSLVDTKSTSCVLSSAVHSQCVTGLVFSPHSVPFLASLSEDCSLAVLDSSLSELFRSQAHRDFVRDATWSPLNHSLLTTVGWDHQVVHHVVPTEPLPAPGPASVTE
Experiment: Inhibition of recombinant human N-terminal FLAG-tagged PRMT5 (2 to end residues)/human N-terminal His-tagged MEP50 (2 to end residues) expressed in HEK293F cells using H4 peptide as substrate preincubated for 15 mins followed by substrate and [3H]SAM addition and measured after 1 hr by scintillation counting method
# note: boundary value 40 nM maps to Criterion not met; IC50 below it maps to Criterion met

Challenge: Strictly below 40 nM: is that where IC50 of N#Cc1ccc(C(=O)N2CCc3sc(C(=O)NCC(O)CN4CCc5ccccc5C4)cc3C2)cc1 (stereo unspecified) sits?
Response given: Criterion met

Challenge: Strictly below 40 nM: is that where IC50 of O=C(NCC(O)CN1CCc2ccccc2C1)c1ccc2c(c1)CCN(C(=O)c1ccc(Br)cc1)C2 (stereo unspecified) sits?
Response given: Criterion met

Challenge: Strictly below 40 nM: is that where IC50 of CC(c1ccccc1)N1CCc2sc(C(=O)NCC(O)CN3CCc4ccccc4C3)cc2C1 (stereo unspecified) sits?
Response given: Criterion not met

Challenge: Strictly below 40 nM: is that where IC50 of CN1CCc2sc(C(=O)NCC(O)CN3CCc4ccccc4C3)nc2C1 (stereo unspecified) sits?
Response given: Criterion not met

Challenge: Strictly below 40 nM: is that where IC50 of Cc1c(C(=O)NCC(O)CN2CCc3ccccc3C2)sc2c1CN(C(=O)c1ccc(N(C)C)cc1)CC2 (stereo unspecified) sits?
Response given: Criterion met

Challenge: Strictly below 40 nM: is that where IC50 of O=C(NCC(O)CN1CCc2ccccc2C1)c1cc2c(s1)CCN(C(=O)c1ccc([N+](=O)[O-])cc1)C2 (stereo unspecified) sits?
Response given: Criterion met

Challenge: Strictly below 40 nM: is that where IC50 of O=C(NCC(O)CN1CCc2ccccc2C1)c1cc2c(s1)CCN(C(=O)Cc1ccccc1)C2 (stereo unspecified) sits?
Response given: Criterion not met

Challenge: Strictly below 40 nM: is that where IC50 of CN(C)c1ccc(C(=O)N2CCc3sc(C(=O)NCC(O)CN4CCc5ccccc5C4)cc3C2)cc1 (stereo unspecified) sits?
Response given: Criterion met

Challenge: Strictly below 40 nM: is that where IC50 of CN1CCc2[nH]c(C(=O)NCC(O)CN3CCc4ccccc4C3)cc2C1 (stereo unspecified) sits?
Response given: Criterion not met

Challenge: Strictly below 40 nM: is that where IC50 of O=C(NCC(O)CN1CCc2ccccc2C1)c1cc2c(s1)CCN(C(=O)c1ccc(Cl)cc1)C2 (stereo unspecified) sits?
Response given: Criterion met

====

Molecular target: PRMT5/MEP50 complex (Homo sapiens, UniProt O14744)
Test: Inhibition of recombinant human N-terminal FLAG-tagged PRMT5 (2 to end residues)/human N-terminal His-tagged MEP50 (2 to end residues) expressed in HEK293F cells using H4 peptide as substrate preincubated for 15 mins followed by substrate and [3H]SAM addition and measured after 1 hr by scintillation counting method
Items are presented alongside their recorded IC50.
Express your answer in µM, writing the number without its unit.

compound	IC50 [µM]
COc1ccc(C(=O)N2CCc3cc(C(=O)NC[C@@H](O)CN4CCc5ccccc5C4)ccc3C2)cc1	0.033
O=C(NCC(O)CN1CCc2ccccc2C1)c1cc2c(s1)CCN(C1CCOCC1)C2 (centres undefined)	0.46
O=C(NCC(O)CN1CCc2ccccc2C1)c1cc2c(s1)CCN(C(=O)c1ccc(F)cc1)C2 (centres undefined)	0.03
Cc1ccc(C(=O)N2CCc3sc(C(=O)NCC(O)CN4CCc5ccccc5C4)cc3C2)cc1 (centres undefined)	0.0325
O=C(NCC(O)CN1CCc2ccccc2C1)c1cc2c(s1)CCN(C(=O)c1ccc(N3CCC3)cc1)C2 (centres undefined)	0.044
O=C(NCC(O)CN1CCc2ccccc2C1)c1cc2c(s1)CCN(C(=O)CCc1ccccc1)C2 (centres undefined)	0.047
O=C(NC[C@@H](O)CN1CCc2ccccc2C1)c1ccc2c(c1)CCN(C(=O)c1ccc(Br)cc1)C2	0.059
O=C(NCC(O)CN1CCc2ccccc2C1)c1cc2c(s1)CCN(C(=O)c1ccccc1F)C2 (centres undefined)	0.045

# context switch: different compound, same IC50
Challenge: Quick one: IC50 of O=C(NCC(O)CN1CCc2ccccc2C1)c1cc2c(s1)CCN(C(=O)c1ccco1)C2 (centres undefined) ?
Response given: 0.025

====

Target: Protein arginine N-methyltransferase 1 (Homo sapiens)
Sequence (Q99873 whole entry): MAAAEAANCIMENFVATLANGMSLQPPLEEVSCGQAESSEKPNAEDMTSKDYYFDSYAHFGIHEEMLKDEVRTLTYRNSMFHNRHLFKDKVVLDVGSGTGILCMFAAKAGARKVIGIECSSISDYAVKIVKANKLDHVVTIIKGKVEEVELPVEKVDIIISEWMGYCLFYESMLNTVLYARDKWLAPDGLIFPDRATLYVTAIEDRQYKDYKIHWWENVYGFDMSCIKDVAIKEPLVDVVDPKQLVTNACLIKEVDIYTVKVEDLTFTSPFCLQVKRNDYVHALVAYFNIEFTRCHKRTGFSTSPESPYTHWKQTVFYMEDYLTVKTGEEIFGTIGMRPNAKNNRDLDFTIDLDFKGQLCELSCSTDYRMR
endpointName: IC50

Challenge: What measured IC50 is associated with "O=C(NC[C@H](O)CN1CCc2ccccc2C1)c1ccc2c(c1)CCN(C(=O)c1ccc(Br)cc1)C2" on Protein arginine N-methyltransferase 1 (Homo sapiens)?
Response given: > 100 µM

====

Items are presented alongside their recorded IC50.
Biological target: PRMT5/MEP50 complex (Homo sapiens)
Assay: Inhibition of recombinant human N-terminal FLAG-tagged PRMT5 (2 to end residues)/human N-terminal His-tagged MEP50 (2 to end residues) expressed in HEK293F cells using H4 peptide as substrate preincubated for 15 mins followed by substrate and [3H]SAM addition and measured after 1 hr by scintillation counting method
Express your answer in nM, writing the number without its unit.

Check out these entries, answers already filled in.
molecule	IC50 / nM
COc1ccc(C(=O)N2CCc3cc(C(=O)NCC(O)CN4CCc5ccccc5C4)ccc3C2)cc1 (centres undefined)	23
O=C(NCC(O)CN1CCc2ccccc2C1)c1cc2c(s1)CCN(Cc1ccccc1)C2 (centres undefined)	240
CN(C)c1ccc(C(=O)N2CCc3ccc(C(=O)NCC(O)CN4CCc5ccccc5C4)cc3C2)cc1 (centres undefined)	40
CN1CCc2oc(C(=O)NCC(O)CN3CCc4ccccc4C3)cc2C1 (centres undefined)	1900
O=C(NCC(O)CN1CCc2ccccc2C1)c1cc2c(s1)CCN(C(=O)c1cccs1)C2 (centres undefined)	37

Challenge: Quick one: IC50 of "COc1ccc(C(=O)N2CCc3cc(C(=O)NC[C@H](O)CN4CCc5ccccc5C4)ccc3C2)cc1" ?
Response given: 13

Challenge: Quick one: IC50 of CN(C)c1ccc(C(=O)N2CCc3cc(C(=O)NCC(O)CN4CCc5ccccc5C4)ccc3C2)cc1 (centres undefined) ?
Response given: 17

Challenge: Quick one: IC50 of O=C(NCC(O)CN1CCc2ccccc2C1)c1cc2c(s1)CCN(C(=O)c1ccc(Br)cc1)C2 (centres undefined) ?
Response given: 18

Challenge: Quick one: IC50 of O=C(NCC(O)CN1CCc2ccccc2C1)c1cc2c(s1)CCN(C(=O)Oc1ccccc1)C2 (centres undefined) ?
Response given: 50
